Target: SOS1/KRAS WT (Homo sapiens (Human))
Sequence (Q07889 564-1049): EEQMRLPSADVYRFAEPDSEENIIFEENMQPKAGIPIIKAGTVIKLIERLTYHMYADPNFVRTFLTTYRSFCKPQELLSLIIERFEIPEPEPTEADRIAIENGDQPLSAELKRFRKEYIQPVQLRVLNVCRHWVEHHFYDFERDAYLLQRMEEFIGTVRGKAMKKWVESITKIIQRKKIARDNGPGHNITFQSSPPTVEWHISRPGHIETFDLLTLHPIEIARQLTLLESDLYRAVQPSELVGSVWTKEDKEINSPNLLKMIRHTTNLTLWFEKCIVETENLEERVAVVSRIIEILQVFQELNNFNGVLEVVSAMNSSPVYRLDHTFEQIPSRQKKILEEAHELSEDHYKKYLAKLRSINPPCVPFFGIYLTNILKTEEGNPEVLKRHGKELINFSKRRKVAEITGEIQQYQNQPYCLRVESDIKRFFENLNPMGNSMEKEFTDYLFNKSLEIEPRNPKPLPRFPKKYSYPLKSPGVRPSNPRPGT
Assay: SOS1/KRAS WT HTRF binding assay (FRET-based protein-protein interaction)
Details: inhibition of His6-SOS1 (aa564-1049, 40 nM) binding to GST-KRAS-WT (aa1-188, 40 nM); at least two independent replicates; read-out: SOS1/KRAS WT HTRF Binding assay pIC50 (converted)
Lab note - cut at 10 nM for IC50: met if strictly below, not met if not.

These recorded examples may help you get a feel for the data.
>>> answer_label("Cc1nnc(N[C@H](C)c2cccc(C(F)(F)C(C)(C)O)c2F)c2cc3c(cc12)C(C)(C)C(=O)N3C [Compound 46]")
"not met"
>>> answer_label("Cc1c(-c2ccnn2C)cccc1[C@@H](C)Nc1nnc(C)c2cc3c(cc12)n(C)c(=O)n3C [Compound 150]")
"met"
>>> answer_label("COCC(F)(F)c1cccc([C@@H](C)Nc2nnc(C)c3cc4c(cc23)n(C)c(=O)n4C)c1F [Compound 36]")
"not met"
>>> answer_label("CCOC1(C)C(=O)N(C)c2cc3c(C)nnc(N[C@H](C)c4cccc(C(F)(F)C(C)(C)O)c4F)c3cc21 (stereo partly shown) [Compound 190]")
"not met"

Request: Given Cc1nnc(N[C@H](C)c2cccc(C(F)(F)CO)c2)c2cc3c(cc12)n(C)c(=O)n3C(C)C [Compound 14] , is recorded IC50 strictly lower than 10 nM?
Response: met

Request: I'd appreciate it if you could check whether Cc1c(C2=CCOCC2)cccc1[C@@H](C)Nc1nnc(C)c2cc3c(cc12)n(C)c(=O)n3C [Compound 157] has IC50 smaller than 10 nM.
Response: not met

Request: Find out if reported IC50 for CCN1C(=O)C(C)(OC)c2cc3c(C)nnc(N[C@H](C)c4cccc(C(F)(F)C(C)(C)O)c4F)c3cc21 (stereo partly shown) [Compound 170] is less than 10 nM
Response: met
